Test: Selectivity index, ratio of IC50 for human MGC803 cells to IC50 for human PC3 cells incubated for 72 hrs by MTT assay
Assay type: functional
The entries below come with measured Ratio IC50 values attached.

{"SMILES_ENTRY": "Cc1[nH]c2ccccc2c1CCNC(=S)N/N=C/c1ccccn1", "Ratio IC50": 3.93}
{"SMILES_ENTRY": "C/C(=N\\NC(=S)NCCc1c[nH]c2ccccc12)c1ccc(C)cc1", "Ratio IC50": ">1.06"}
{"SMILES_ENTRY": "S=C(NCCc1c[nH]c2ccccc12)N/N=C/c1ccc(Cl)cc1", "Ratio IC50": ">1.03"}
{"SMILES_ENTRY": "C/C(=N\\NC(=S)NCCc1c[nH]c2ccc(Cl)cc12)c1ccccn1", "Ratio IC50": 7.05}
